Recorded values, source PubChem BioAssay (NCI).

# Test system: KM12 colon
# Protocol notes: NCI tumour cell line growth inhibition, 48 h
Experimental readout: GI50

Q) Report GI50 for C[C@]12CC[C@@H]3c4ccc(O)cc4CC[C@H]3[C@@H]1CC[C@@H]2NS(=O)(=O)c1cccc(F)c1
A) 2.34 µM

Q) Report GI50 for Cc1cc(I)cc(CN(C)CCCN2CCOCC2)c1O
A) 29.6 µM

Q) Report GI50 for COc1cc2ncn(-c3cc(OCCc4ccccc4)c(C(N)=O)s3)c2cc1OC
A) 18.9 µM

Q) Report GI50 for O=C(Nc1ccc(CO)cc1)c1coc2ccccc2c1=O
A) > 100 µM

----------
Kindly state TGI for each of the entries shown.
# System: HS 578T breast
# Protocol notes: NCI tumour cell line growth inhibition, 48 h

Q) Report TGI for NCCN=C(Nc1ccccc1)Nc1ccccc1
A) > 100 µM

Q) Report TGI for C1CNCCNCCN1
A) > 100 µM

Q) Report TGI for COc1ccc(Nc2nc(NS(=O)(=O)c3cc(C)c(Cl)cc3S)n[nH]2)cc1
A) > 100 µM

Q) Report TGI for CCC(C)(C)c1ccc(OCCCCCCN2CCNCC2)cc1
A) 5.17 µM

Q) Report TGI for CC1=NN2C(=N)/C(=C/c3ccco3)C(=O)N=C2S1
A) > 100 µM

Q) Report TGI for Cc1cc(C2CC(O)C(CO)O2)cc2c(=O)[nH]c(N)nc12 (stereo not given)
A) > 100 µM

Q) Report TGI for COc1cc(C2SCC(=O)N2c2ccc(-c3ccc(-n4c(-c5ccccc5)nc5ccccc5c4=O)cc3)cc2)cc(OC)c1OC (stereo not given)
A) > 100 µM

Q) Report TGI for CC(C)S(=O)(=O)c1ccccc1Nc1nc(Nc2cccc(NC(=O)CN)c2)ncc1Cl
A) 1.11 µM

Q) Report TGI for COC(=O)[C@H](Cc1ccccc1)NC(=O)[C@H](Cc1ccccc1)NC(=O)[C@@H]1CCCN1C(=O)N[C@H]1C2C=CC(C2)C1C(=O)N1CCC[C@H]1C(=O)N[C@@H](C)C(=O)N[C@H](C(=O)OC)C(C)C (stereo not given in full)
A) > 100 µM

Q) Report TGI for O=C(Cc1ccccc1)NN1C(=O)/C(=C\c2cccc(O)c2)SC1=Nc1ccccc1
A) > 100 µM

----------
# Test system: KM12 colon
# Protocol notes: NCI tumour cell line growth inhibition, 48 h
Where a SMILES comes first, the peptide text is derived from it. The star is where a group is joined. X36 = O=C(c1ccc(-c2ccc(Cl)cc2Cl)o1)*
Experimental readout: TGI

Q) Report TGI for CN(O)C(=O)c1cccc(Cl)c1
A) > 100 µM

Q) Report TGI for CC(=O)Nc1cc2c(s1)CCC1CC(=O)NN=C21 (stereo not drawn)
A) > 100 µM

Q) Report TGI for CCCC(C)NC1=C(NC(C)=O)C(=O)c2ccccc2C1=O (stereo not drawn)
A) > 100 µM

Q) Report TGI for Nc1ccc2[nH]c3c(-c4ccccc4)nccc3c2c1
A) > 100 µM

Q) Report TGI for CCN1C(=O)C(=C/C=C/c2ccc([N+](=O)[O-])cc2)C(=O)N(CC)C1=S
A) 60.7 µM

Q) Report TGI for N#Cc1nc(-c2cccs2)oc1N
A) > 100 µM

Q) Report TGI for C[C@]12CCc3nc(Nc4ccccc4)sc3C1=CC[C@@H]1[C@@H]2CC[C@]2(C)/C(=N/NC(N)=S)CC[C@@H]12
A) > 100 µM

Q) Report TGI for COC(=O)N/N=C(\C)C(CN1CCCCC1)C(C1=C(O)c2ccccc2OC1)c1ccccc1 (stereo not drawn)
A) > 100 µM

Q) Report TGI for CCOC(=O)CNC(=O)c1ccccc1Nc1ccnc(C(F)(F)F)c1
A) > 86 µM

Q) Report TGI for CCOC(=O)c1c[nH]c2oc(/C=N/N3CC(CN4CCOCC4)OC3=O)cc2c1=O (stereo not drawn)
A) > 100 µM

Q) Report TGI for O=C1[C@H]2ON(c3ccccc3)C(c3ccc(Cl)cc3)[C@H]2C(=O)N1c1ccc(Cc2ccc(N3C(=O)[C@@H]4ON(c5ccccc5)C(c5ccc(Cl)cc5)[C@@H]4C3=O)cc2)cc1 (stereo partly drawn)
A) > 100 µM

Q) Report TGI for CCOP(=O)(OCC)c1c(C(=O)OC)cc(=O)[nH]c1-c1ccc(C)cc1
A) 33.6 µM

Q) Report TGI for COc1ccc(C(=O)COc2cccc(/C=C3\Oc4ccc5ccccc5c4C3=O)c2)cc1
A) 14.6 µM

Q) Report TGI for O=C(Nc1ccc(Br)cc1)c1ccc(Cl)c(Cl)c1
A) > 100 µM

Q) Report TGI for COc1cccc(/C(COc2ccc3c(c2)oc(=O)c2cc(OC)ccc23)=N/O)c1
A) > 100 µM

Q) Report TGI for CN(C)c1ccc(C2SCC(=O)N2NS(=O)(=O)c2cccc(C(=O)O)c2)cc1 (stereo not drawn)
A) > 100 µM

Q) Report TGI for CC(=O)OC1CC2C(C)(C)OC(=O)CC(OC(C)=O)[C@]2(C)C2CCC3(C)C(=CCC3[C@H]3COC(=O)C3)[C@]12C (stereo partly drawn)
A) > 100 µM

Q) Report TGI for Oc1cn(-c2ccc(Cl)cc2)nc1-c1n[nH]c(=S)n1C1CCCCC1
A) 17.5 µM

Q) Report TGI for COc1cccc(C2CC(C)=Nc3c(ccc4c3C(=O)c3ccccc3C4=O)N2)c1O (stereo not drawn)
A) > 100 µM

Q) Report TGI for COC(=O)CCC(=O)CC1CC(=O)C2CCCN12 (stereo not drawn)
A) > 100 µM

Q) Report TGI for CC1=NN(c2ccc(S(=O)(=O)O)cc2)C2(C1)SCC(=O)N2c1nc2ccccc2s1 (stereo not drawn)
A) > 100 µM

Q) Report TGI for O=C(CSC(c1ccccc1)c1ccccc1)N/N=C/c1ccc(Cl)cc1Cl
A) 38.9 µM

Q) Report TGI for CC(C)C(=O)/C=C/c1ccc(Br)cc1
A) 27.5 µM

Q) Report TGI for Cc1cc2c(cc1Cl)SC(=Nc1ccc(Cl)cc1)N(S(=O)(=O)c1ccccc1)S2(=O)=O
A) 50.4 µM

Q) Report TGI for CC(=O)N1N=C(c2ccc3ccccc3c2O)CC1C(=O)c1ccco1 (stereo not drawn)
A) 44.8 µM

Q) Report TGI for O=S1OC2(c3ccccc3-c3ccccc32)c2ccccc21 (stereo not drawn)
A) > 100 µM

Q) Report TGI for CCC(C)(C)c1ccc(OCCCCCCN2CCNCC2)cc1
A) 3.5 µM

Q) Report TGI for CCn1nc2c3c(ncn3C(C)(C)O2)c1=O
A) > 100 µM

Q) Report TGI for C1CNCCNCCN1
A) > 100 µM

Q) Report TGI for O=C(NC(Cc1ccc(I)cc1)C(=O)O)c1ccc(Br)cc1 (stereo not drawn)
A) > 100 µM

Q) Report TGI for NC1=NS(=O)(=O)Nc2nc(-c3ccc([N+](=O)[O-])o3)[nH]c21
A) 36.1 µM

Q) Report TGI for COc1ccc(O)cc1
A) > 100 µM

Q) Report TGI for N.N.N.N.[Cl-].[Co+3].[N-]=[N+]=[N-].[N-]=[N+]=[N-]
A) > 100 µM

Q) Report TGI for O=c1c2ncn(COCCCl)c2n(-c2ccccc2)c(=S)n1-c1ccccc1
A) > 100 µM

Q) Report TGI for CCn1c(CO)nn(-c2cc(O[C@@H](C)C(F)(F)F)c(C(=O)Nc3c(F)cccc3Cl)cc2F)c1=O
A) > 100 µM

Q) Report TGI for CCOC(=O)/C1=C(\C)N(c2ccc(C)cc2)C(=O)c2ccccc2C(=O)c2c(OC(C)=O)ccc(OC(C)=O)c21
A) 40.6 µM

Q) Report TGI for CN(CCCNC(=O)Cc1ccc2ccc3cccc4ccc1c2c34)CCCNc1cc(-c2ccc3ccccc3c2)nc2ccccc12
A) 2.69 µM

Q) Report TGI for CCC(C)C(NC(=O)CNC(=O)C(Cc1ccccc1)NC(=O)C1CCCN1C(=O)c1ccc(-c2ccc(Cl)cc2Cl)o1)C(=O)OC (stereo not drawn) (X36-PFGI-OMe; configuration not given here)
A) > 100 µM

Q) Report TGI for Cc1ccc2c(=O)cc(-c3cccs3)[nH]c2n1
A) > 100 µM

Q) Report TGI for CC1CCOc2ccc(cc2)C=Nc2ccc(cc2)CCc2ccc(cc2)N=Cc2ccc(cc2)OCC1 (stereo not drawn)
A) > 100 µM

Q) Report TGI for Oc1cc(C2OCCCO2)cc(O)c1O
A) > 100 µM

Q) Report TGI for O=C(COc1ccc(/C=C2\CSc3ccccc3C2=O)cc1)Nc1nccs1
A) 8.99 µM

Q) Report TGI for COC(=O)/C(C=O)=C/Sc1ccccc1
A) > 100 µM

----------
Kindly state TGI for each of the entries shown.
# Tested on: NCI-H23 lung
# Protocol notes: NCI tumour cell line growth inhibition, 48 h

Q) // output TGI; input O=C1c2ccccc2C(=O)N1Cc1ccccc1-c1c2nc(c(-c3ccccc3CN3C(=O)c4ccccc4C3=O)c3ccc([nH]3)c(-c3ccccc3CN3C(=O)c4ccccc4C3=O)c3nc(c(-c4ccccc4CN4C(=O)c5ccccc5C4=O)c4ccc1[nH]4)C=C3)C=C2 ; system NCI-H23 lung
A) > 100 µM

Q) // output TGI; input CCC(C#N)NC(=O)NC(C#N)CC (stereo not given) ; system NCI-H23 lung
A) > 100 µM

Q) // output TGI; input Cn1cc(C2=C(c3cn(CCCCCN)c4ccccc34)C(=O)NC2=O)c2ccccc21 ; system NCI-H23 lung
A) > 25 µM

Q) // output TGI; input CN(O)C(=O)c1cccc(Cl)c1 ; system NCI-H23 lung
A) > 100 µM

Q) // output TGI; input O=c1[nH]nc(Cc2ccc([N+](=O)[O-])cc2)n1CCO ; system NCI-H23 lung
A) > 100 µM

Q) // output TGI; input CC1(C)O/C(=C\c2ccccc2)C(=O)/C(=C/c2ccccc2)O1 ; system NCI-H23 lung
A) > 100 µM

Q) // output TGI; input O=c1[nH]/c(=C/c2ccc(OCc3ccccc3)cn2)c(=O)[nH]/c1=C/c1ccc(O)cc1 ; system NCI-H23 lung
A) 5.44 µM

Q) // output TGI; input Cc1cc2c(cc1Cl)SC(=Nc1ccc(Cl)cc1)N(S(=O)(=O)c1ccccc1)S2(=O)=O ; system NCI-H23 lung
A) 5.96 µM

Q) // output TGI; input O=C1c2ccc3c4ccccc4n(Cc4ccccc4)c3c2C(=O)N1c1ccccc1 ; system NCI-H23 lung
A) 17.6 µM

Q) // output TGI; input C1CCC2C(C1)CCCC2NC1=NCCO1 (stereo not given) ; system NCI-H23 lung
A) > 100 µM
